measurement.target: UniProt P08183
Sequence (P08183 whole entry): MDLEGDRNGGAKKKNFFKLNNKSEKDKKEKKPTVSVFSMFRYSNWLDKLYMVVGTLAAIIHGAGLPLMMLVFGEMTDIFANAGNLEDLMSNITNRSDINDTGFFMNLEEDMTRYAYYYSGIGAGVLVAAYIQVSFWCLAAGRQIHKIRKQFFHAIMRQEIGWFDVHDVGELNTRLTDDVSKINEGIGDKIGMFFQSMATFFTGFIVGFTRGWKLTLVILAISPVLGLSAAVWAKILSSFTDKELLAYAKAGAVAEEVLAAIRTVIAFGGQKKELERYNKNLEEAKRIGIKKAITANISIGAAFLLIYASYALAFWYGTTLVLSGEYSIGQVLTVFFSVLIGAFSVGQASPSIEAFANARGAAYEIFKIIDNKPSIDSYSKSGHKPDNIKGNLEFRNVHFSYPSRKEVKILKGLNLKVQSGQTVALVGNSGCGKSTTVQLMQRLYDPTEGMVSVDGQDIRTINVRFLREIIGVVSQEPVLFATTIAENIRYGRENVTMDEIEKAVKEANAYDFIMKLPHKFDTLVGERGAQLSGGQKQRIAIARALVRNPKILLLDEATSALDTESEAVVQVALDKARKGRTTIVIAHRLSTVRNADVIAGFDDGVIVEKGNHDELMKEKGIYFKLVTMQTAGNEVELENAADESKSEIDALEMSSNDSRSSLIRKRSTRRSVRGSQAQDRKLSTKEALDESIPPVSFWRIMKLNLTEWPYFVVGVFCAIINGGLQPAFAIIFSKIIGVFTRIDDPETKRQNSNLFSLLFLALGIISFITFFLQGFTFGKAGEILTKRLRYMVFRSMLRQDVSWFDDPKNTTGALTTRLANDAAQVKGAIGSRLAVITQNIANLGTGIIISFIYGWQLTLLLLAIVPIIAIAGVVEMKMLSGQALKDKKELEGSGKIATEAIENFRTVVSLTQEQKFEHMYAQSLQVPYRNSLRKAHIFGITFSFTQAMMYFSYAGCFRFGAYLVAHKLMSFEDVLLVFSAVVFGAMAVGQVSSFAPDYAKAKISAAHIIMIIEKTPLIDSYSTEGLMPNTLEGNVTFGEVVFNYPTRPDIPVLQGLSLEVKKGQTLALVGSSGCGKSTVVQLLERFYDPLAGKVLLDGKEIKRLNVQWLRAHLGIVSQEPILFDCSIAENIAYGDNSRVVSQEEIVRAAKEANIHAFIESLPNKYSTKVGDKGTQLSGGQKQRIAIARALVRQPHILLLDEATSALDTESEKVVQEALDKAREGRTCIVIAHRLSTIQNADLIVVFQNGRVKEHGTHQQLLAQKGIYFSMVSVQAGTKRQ
procedure.text: in vitro
setup.conditions: pig, LLC-PK1
quantity: efflux ratio at 2 h, 1 µM

compound	efflux ratio at 2 h, 1 µM
C=CC(=O)N1C[C@H](c2ccc3ncnc(Nc4ccc(Oc5ccn6ncnc6c5)c(C)c4F)c3n2)C[C@@H]1C1CC1 (racemic) [Example 302]	1.3
C=CC(=O)N1CCC(Oc2ccc3ncnc(Nc4ccc(Oc5ccc6cn(C)nc6c5)c(C)c4)c3n2)CC1 [Example 3]	2

1: C=CC(=O)N1CC(c2ccc3ncnc(Nc4ccc(Oc5ccc6c(c5)ncn6C)c(C)c4F)c3n2)CC1C (stereo not shown) [Example 124]
2: C=CC(=O)N1C[C@H]2CC[C@@H]1CN2c1ccc2ncnc(Nc3ccc(Oc4ccn5ncnc5c4)c(C)c3F)c2n1 [Example 175]
Hi there, can you help? I need to know whether 1 or 2 has lower measured efflux ratio at 2 h, 1 µM. State the label of the item chosen.
1

* * *

measurement.target: EGFR wild type (EGFR WT) (Homo sapiens (Human), UniProt P00533)
Sequence (P00533 25-1210): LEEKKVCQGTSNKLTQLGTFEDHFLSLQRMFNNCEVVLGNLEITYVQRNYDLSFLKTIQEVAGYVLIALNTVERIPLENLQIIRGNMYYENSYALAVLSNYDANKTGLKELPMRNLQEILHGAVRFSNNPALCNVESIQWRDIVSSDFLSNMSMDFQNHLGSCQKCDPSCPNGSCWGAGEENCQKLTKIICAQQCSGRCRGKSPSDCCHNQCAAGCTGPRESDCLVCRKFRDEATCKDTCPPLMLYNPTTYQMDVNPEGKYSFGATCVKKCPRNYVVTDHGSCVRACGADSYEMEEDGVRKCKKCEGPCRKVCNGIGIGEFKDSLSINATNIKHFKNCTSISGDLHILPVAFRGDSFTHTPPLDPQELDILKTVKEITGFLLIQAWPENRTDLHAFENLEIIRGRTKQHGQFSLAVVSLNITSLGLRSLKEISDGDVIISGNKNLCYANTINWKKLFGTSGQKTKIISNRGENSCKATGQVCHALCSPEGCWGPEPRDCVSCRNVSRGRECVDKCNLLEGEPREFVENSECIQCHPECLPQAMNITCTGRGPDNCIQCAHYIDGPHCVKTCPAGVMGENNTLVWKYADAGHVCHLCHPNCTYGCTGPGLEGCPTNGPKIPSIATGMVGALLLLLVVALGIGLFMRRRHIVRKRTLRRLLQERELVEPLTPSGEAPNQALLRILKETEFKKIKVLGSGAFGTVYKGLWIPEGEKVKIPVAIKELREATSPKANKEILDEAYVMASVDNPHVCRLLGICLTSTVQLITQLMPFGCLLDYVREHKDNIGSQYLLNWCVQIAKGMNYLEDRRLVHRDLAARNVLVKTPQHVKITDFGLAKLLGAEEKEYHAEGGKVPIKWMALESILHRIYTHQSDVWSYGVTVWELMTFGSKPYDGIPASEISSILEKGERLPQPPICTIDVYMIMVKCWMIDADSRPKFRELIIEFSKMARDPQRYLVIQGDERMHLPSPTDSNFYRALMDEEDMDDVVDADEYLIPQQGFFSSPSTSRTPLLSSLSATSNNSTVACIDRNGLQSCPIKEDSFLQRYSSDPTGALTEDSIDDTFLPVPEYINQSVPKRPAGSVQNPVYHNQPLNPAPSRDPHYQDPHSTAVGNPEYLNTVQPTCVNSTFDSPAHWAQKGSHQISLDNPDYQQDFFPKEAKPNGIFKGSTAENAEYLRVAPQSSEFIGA
procedure.text: Cellular Phosphorylation Assay, Assay 5 (EGF-stimulated EGFR phosphorylation, NIH 3T3 cells)
Format: cell-based
setup.conditions: EGF-stimulated EGFR WT phosphorylation
quantity: IC50 (nM)

Solved cases below.
compound	result.units	IC50
C=CC(=O)N1CC[C@H](c2ccc3ncnc(Nc4ccc(Oc5ccn6ncnc6c5)c(C)c4F)c3n2)CC12CC2 (single isomer, unassigned)	nM	270
C=CC(=O)N1CCC(Oc2nc3c(Nc4ccc(Oc5ccn6ncnc6c5)c(C)c4F)ncnc3cc2OC)CC1	nM	111
C=CC(=O)N1CCC(Oc2ccc3ncnc(Nc4ccc(Oc5cnc6cn(C)nc6c5)c(C)c4F)c3n2)CC1	nM	2230
C=CC(=O)N1CCN(c2ccc3ncnc(Nc4ccc(Oc5ccn6ncnc6c5)c(C)c4F)c3n2)C[C@@H]1C	nM	1850
C=CC(=O)N1CC2CC(C1)N2c1ccc2ncnc(Nc3ccc(Oc4ccn5ncnc5c4)c(C)c3F)c2n1	nM	2100

I: C=CC(=O)N1CC[C@@H]2C[C@H]1CN2c1ccc2ncnc(Nc3cc(Cl)c(Oc4ccn5ncnc5c4)cc3F)c2n1
II: C=CC(=O)N1CCN(c2ccc3ncnc(Nc4ccc(Oc5ccc6c(c5)ncn6C)c(C)c4)c3n2)CC1(C)C
Lab note: record which item had the higher IC50, I or II . State the label of the item chosen.
II
(II: 1320 nM, I: 156 nM)

* * *

Quick reference for pIC50 among some compounds
measurement.target: EGFR wild type (EGFR WT) (Homo sapiens (Human), UniProt P00533)
procedure.text: Cellular Phosphorylation Assay, Assay 5 (EGF-stimulated EGFR phosphorylation, NIH 3T3 cells)
Format: cell-based
setup.conditions: EGF-stimulated EGFR WT phosphorylation
pIC50: −log10 of the molar value.

Entry C=CC(=O)N1CCCN(c2nc3c(Nc4ccc(Oc5ccn6ncnc6c5)c(C)c4F)ncnc3cc2OC)CC1 [Example 150] : reported pIC50 = ?
≤ 5.30

Entry C=CC(=O)N1C[C@H]2CC[C@@H](C1)[C@@H]2c1ccc2ncnc(Nc3ccc(Oc4ccn5ncnc5c4)c(C)c3F)c2n1 [Example 223] : reported pIC50 = ?
≤ 5.30

Entry C=CC(=O)N1CCC(Oc2ccc3ncnc(Nc4ccc(Oc5cc6nn(C)cc6cn5)c(C)c4)c3n2)CC1 [Example 52] : reported pIC50 = ?
≤ 5.30

Entry C=CC(=O)N1CCN(c2ccc3ncnc(Nc4ccc(Oc5ccn6ncnc6c5)c(Cl)c4F)c3n2)C[C@@H]1C [Example 90] : reported pIC50 = ?
6.24

Entry C=CC(=O)N1CCC[C@@H](c2ccc3ncnc(Nc4ccc(Oc5ccn6ncnc6c5)c(C)c4F)c3n2)CC1 (single isomer, unassigned) [Example 209] : reported pIC50 = ?
6.30

Entry C=CC(=O)N1CC[C@H]2C[C@@H](c3ccc4ncnc(Nc5ccc(Oc6ccc7c(c6)ncn7C)c(C)c5F)c4n3)C[C@H]21 (racemic) [Example 133] : reported pIC50 = ?
5.42

* * *

measurement.target: EGFR wild type (EGFR WT) (Homo sapiens (Human), UniProt P00533)
procedure.text: Cellular Phosphorylation Assay, Assay 5 (EGF-stimulated EGFR phosphorylation, NIH 3T3 cells)
Format: cell-based
setup.conditions: cellular EGFR WT phosphorylation, EGF-stimulated
Quick reference for IC50 among some compounds
Dear colleague, please return just the value in µM, with no unit written.

Solved cases below.
compound	IC50 (µM)
C=CC(=O)N1[C@H](C)CN(c2ccc3ncnc(Nc4cc(Cl)c(Oc5ccn6ncnc6c5)cc4F)c3n2)C[C@@H]1C	4.04
C=CC(=O)N1CC2CCC(C1)N2c1ccc2ncnc(Nc3cc(C)c(Oc4ccn5ncnc5c4)cc3F)c2n1	0.68

Continue with the next compound.
Entry C=CC(=O)N1C2CCC1CN(c1ccc3ncnc(Nc4cc(Cl)c(Oc5ccn6ncnc6c5)cc4F)c3n1)C2 : reported IC50 = ?
3.49

* * *

measurement.target: EGFR (Homo sapiens (Human))
procedure.text: ErbB Enzyme Assay (HTRF KinEASE-TK), Assay 3
Assay type: biochemical
setup.conditions: EGFR enzyme
pIC50: −log10 of the molar value.
quantity: pIC50

Solved cases below.
compound	pIC50
C=CC(=O)N1CCN(c2ccc3ncnc(Nc4ccc(Oc5cnc6c(c5)ncn6C)c(Cl)c4F)c3n2)CC1(C)C [Example 239]	6.02
C=CC(=O)N1CCN(c2ccc3ncnc(Nc4ccc(Oc5ccn6ncnc6c5)c(C)c4F)c3n2)CC1 [Example 96]	6.08
C=CC(=O)N1[C@@H]2CC[C@H]1C[C@H](c1ccc3ncnc(Nc4ccc(Oc5ccc6c(c5)ncn6C)c(C)c4F)c3n1)C2 [Example 195]	5.59
CC#CC(=O)N1C2CCC1CN(c1ccc3ncnc(Nc4ccc(Oc5ccn6ncnc6c5)c(C)c4F)c3n1)C2 [Example 240]	5.31
C=CC(=O)N1CC2CC(C1)N2c1ccc2ncnc(Nc3ccc(Oc4ccn5ncnc5c4)c(C)c3F)c2n1 [Example 46]	5.90
C=CC(=O)N1[C@@H]2CC[C@H]1C[C@@H](c1ccc3ncnc(Nc4ccc(Oc5cnc6c(c5)ncn6C)c(C)c4)c3n1)C2 [Example 219]	5.44
C=CC(=O)N1C2CCC1CC(c1ccc3ncnc(Nc4ccc(Oc5ccc6c(c5)ncn6C)c(C)c4)c3n1)C2 (stereo not shown) [Example 122]	5.41

A: C=CC(=O)N1CC[C@H]2CN(c3ccc4ncnc(Nc5ccc(Oc6ccn7ncnc7c6)c(Cl)c5F)c4n3)C[C@H]21 [Example 49]
B: C=CC(=O)N1C[C@H]2C[C@H](c3ccc4ncnc(Nc5cc(C)c(Oc6ccn7ncnc7c6)cc5F)c4n3)C[C@H]2C1 [Example 201]
Hi there, can you help? I need to know whether A or B has lower measured pIC50. State the label of the item chosen.
B
(B: 5.02, A: 5.93)

* * *

measurement.target: EGFR (Homo sapiens (Human))
procedure.text: ErbB Enzyme Assay (HTRF KinEASE-TK), Assay 3
Type: biochemical
setup.conditions: EGFR enzyme assay
pIC50: −log10 of the molar value.
quantity: pIC50

compound	reading
C=CC(=O)N1C[C@H]2C[C@@H]1[C@H](c1ccc3ncnc(Nc4cc(C)c(Oc5ccn6ncnc6c5)cc4F)c3n1)C2	5.46

I: C=CC(=O)N1CCCC(c2ccc3ncnc(Nc4ccc(Oc5cnc6c(c5)ncn6C)c(C)c4)c3n2)CC1 (stereo not shown)
II: C=CC(=O)N1CCN(c2ccc3ncnc(Nc4ccc(Oc5ccn6ncnc6c5)c(Cl)c4F)c3n2)C[C@@H]1COC
Lab note: record which item had the higher pIC50, I or II . State the label of the item chosen.
II
(II: 6.38, I: 5.89)

I: C=CC(=O)N1CCCC(c2ccc3ncnc(Nc4cc(C)c(Oc5ccn6ncnc6c5)cc4F)c3n2)CC1 (stereo not shown)
II: C=CC(=O)N1[C@H](C)CN(c2ccc3ncnc(Nc4ccc(Oc5ccn6ncnc6c5)c(Cl)c4F)c3n2)C[C@@H]1C
Lab note: record which item had the higher pIC50, I or II . State the label of the item chosen.
II

a: C=CC(=O)N1C[C@H]2C[C@@H]1[C@H](c1ccc3ncnc(Nc4ccc(Oc5cnc6c(c5)ncn6C)c(C)c4F)c3n1)C2
b: C=CC(=O)N1CCCC(c2ccc3ncnc(Nc4ccc(Oc5ccn6ncnc6c5)c(C)c4)c3n2)CC1 (stereo not shown)
Hi there, can you help? I need to know whether a or b has lower measured pIC50. State the label of the item chosen.
a
(a: 5.25, b: 5.57)

* * *

measurement.target: EGFR (Homo sapiens (Human), UniProt P00533)
procedure.text: ErbB Enzyme Assay (HTRF KinEASE-TK), Assay 3
Type: biochemical
setup.conditions: EGFR enzyme assay
quantity: IC50 (nM)

compound	measurement.target	result.units	reading
C=CC(=O)N1C[C@H](c2ccc3ncnc(Nc4ccc(Oc5ccn6ncnc6c5)c(C)c4F)c3n2)C[C@H]1C (mixture of isomers)	EGFR (Homo sapiens (Human), UniProt P00533)	nM	2200

A: C=CC(=O)N(C)[C@H]1CCN(c2ccc3ncnc(Nc4cc(C)c(Oc5ccn6ncnc6c5)cc4F)c3n2)C1
B: C=CC(=O)N1C[C@@H]2C[C@H](c3ccc4ncnc(Nc5ccc(Oc6ccc7c(c6)ncn7C)c(C)c5F)c4n3)C[C@H]1C2
Lab note: record which item had the higher IC50, A or B . State the label of the item chosen.
A
(A: 2860 nM, B: 277 nM)

A: C=CC(=O)N1CC[C@H](c2ccc3ncnc(Nc4ccc(Oc5ccn6ncnc6c5)c(C)c4F)c3n2)CC1(C)C (racemic)
B: C=CC(=O)N1CCN(c2ccc3ncnc(Nc4ccc(Oc5cc(F)c6c(c5)ncn6C)c(C)c4)c3n2)CC12CC2
Lab note: record which item had the higher IC50, A or B . State the label of the item chosen.
A
(A: 5550 nM, B: 102 nM)
